Target: hCB1 (Homo sapiens)
Test: bioSensAll ebBRET signaling profiling, hCB1
Format: cell-based
Set-up: host or cells: HEK293SL cells, transient PEI transfection
Details: Log [Compound] (M) -5.89285; single replicate values, FigS6a
measurement-label: Gi1 hCB1

# get_value(readout='Gi1 hCB1', item= Cn1nc(-c2nnc(C(C)(C)Oc3ccc(C(F)(F)F)cc3)o2)c2ccccc2c1=O )
39.3106

# lookup: Gi1 hCB1 of Cc1cc(C(=O)N2CC3(CCC3)[C@H]2[C@H]2CCCO2)nn1-c1cccc(C(F)(F)F)c1
27.4072

Data request, read-out Gi1 hCB1, for COC(=O)[C@@H]1[C@@H]2CCC[C@@H]2CN1C(=O)c1cc(C)n(-c2cccc(C(F)(F)F)c2)n1
89.3202

Any idea what its Gi1 hCB1 is? The compound is Cc1cc(C(=O)N2CC3(CCC3)[C@@H]2[C@@H]2CCCO2)nn1-c1cccc(C(F)(F)F)c1
-1.499

* * *

Measured Barr2+GRK2 hCB1 response, listed per entry for reference.
Biological target: hCB1 (Homo sapiens, UniProt P21554)
Sequence (P21554 whole entry): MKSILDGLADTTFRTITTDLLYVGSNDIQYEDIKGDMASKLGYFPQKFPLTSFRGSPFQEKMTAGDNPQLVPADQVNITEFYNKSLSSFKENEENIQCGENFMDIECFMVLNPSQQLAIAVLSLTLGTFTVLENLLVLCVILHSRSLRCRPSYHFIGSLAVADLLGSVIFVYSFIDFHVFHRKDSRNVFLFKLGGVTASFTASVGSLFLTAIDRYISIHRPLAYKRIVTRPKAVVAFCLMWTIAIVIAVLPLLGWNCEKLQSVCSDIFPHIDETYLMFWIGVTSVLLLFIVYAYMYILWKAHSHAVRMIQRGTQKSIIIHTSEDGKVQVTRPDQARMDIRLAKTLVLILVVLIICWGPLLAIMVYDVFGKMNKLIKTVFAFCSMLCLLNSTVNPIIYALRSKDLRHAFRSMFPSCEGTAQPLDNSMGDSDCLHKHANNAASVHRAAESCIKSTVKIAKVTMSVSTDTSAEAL
Assay: bioSensAll ebBRET signaling profiling, hCB1
Assay type: cell-based
Set-up: host or cells: HEK293SL cells, transient PEI transfection
Settings: Barr2+GRK2 biosensor; Log [Compound] (M) -5.89285
When you answer, write just the number.

[
  {
    "compound": "Cn1nc(-c2nnc(C(C)(C)Oc3ccc(Cl)cc3)o2)c2ccccc2c1=O [‘0450]",
    "Barr2+GRK2 hCB1 response": -49.1537
  },
  {
    "compound": "Cc1nc(CC2CC2)oc1-c1nc(Cc2cc3c(cc2Br)OCO3)no1 [‘7019]",
    "Barr2+GRK2 hCB1 response": 30.2955
  },
  {
    "compound": "Brc1cc2c(cc1Cc1noc(-c3cnn(CC4CC4)c3)n1)OCO2 [‘5424]",
    "Barr2+GRK2 hCB1 response": -50.1109
  }
]

Look at this compound and give its reported Barr2+GRK2 hCB1 response. Cc1c(C(=O)OCC2CSc3ccccc3O2)cnn1Cc1ccccc1 (stereo not drawn) [‘7800]
-39.9006

GET /values?readout=Barr2+GRK2 hCB1 response&item= Cc1nn(Cc2ccc(Cl)cc2)c(C)c1C(=O)OCC1CSc2ccccc2O1 (stereo not drawn) [‘5463]
-45.6439

What does the record list as Barr2+GRK2 hCB1 response for Cn1nc(-c2nnc(C(C)(C)Oc3ccc(C(F)(F)F)cc3)o2)c2ccccc2c1=O [‘2153] ?
-32.2428

* * *

Target: UniProt P21554
Assay: bioSensAll ebBRET signaling profiling, hCB1
Type: cell-based
Parameters: host or cells: HEK293SL cells, transient PEI transfection
Conditions: Log [Compound] (M) -10.5529; single replicate values, FigS6a
measurement-label: GoB hCB1
Please state the value as a number alone, without comment.

Below, 2 compounds whose answers are already recorded.
[
  {
    "compound": "Cc1c(C(=O)OCC2CSc3ccccc3O2)cnn1Cc1ccccc1 (stereo not drawn) [‘7800]",
    "system": "UniProt P21554",
    "measurement-label": "GoB hCB1",
    "numeric-value": -2.958
  },
  {
    "compound": "Cc1cc(C(=O)NC(c2ccccc2)c2ccco2)nn1-c1cccc(C(F)(F)F)c1 (stereo not drawn) [‘1081]",
    "system": "UniProt P21554",
    "measurement-label": "GoB hCB1",
    "numeric-value": -5.459
  }
]

Give the reported GoB hCB1 for COC(=O)C(NC(=O)c1cc(C)n(-c2cccc(C(F)(F)F)c2)n1)c1cccs1 (stereo not drawn) [‘60154] (system: UniProt P21554).
-2.762

Any idea what GoB hCB1 came out for Brc1cc2c(cc1Cc1noc(-c3cnn(CC4CC4)c3)n1)OCO2 [‘5424] on UniProt P21554?
-3.287

Which GoB hCB1 is reported with UniProt P21554 for this entry: Cn1nc(-c2nnc(C(C)(C)Oc3ccc(Cl)cc3)o2)c2ccccc2c1=O [‘0450] ?
-7.003

Entry Cc1nn(Cc2ccc(Cl)cc2)c(C)c1C(=O)OCC1CSc2ccccc2O1 (stereo not drawn) [‘5463] , system UniProt P21554: what GoB hCB1 was measured?
-3.652

Record Cc1cc(C(=O)N2CC3(CCC3)[C@@H]2[C@H]2CCCO2)nn1-c1cccc(C(F)(F)F)c1 (single isomer, unassigned) [compound 430] : what is its GoB hCB1 with UniProt P21554?
-0.9456

Give UniProt P21554 GoB hCB1 for COC(=O)[C@@H]1[C@@H]2CCC[C@@H]2CN1C(=O)c1cc(C)n(-c2cccc(C(F)(F)F)c2)n1 [‘6439]
-0.6758

Field: GoB hCB1 (UniProt P21554). Entry: Cn1nc(-c2nnc(C(C)(C)Oc3ccc(C(F)(F)F)cc3)o2)c2ccccc2c1=O [‘2153]
-5.926

* * *

Some molecules, each annotated with its measured pKi [95% CI].
Target: CB1 (rCB1) (Rattus norvegicus)
Sequence (P20272 whole entry): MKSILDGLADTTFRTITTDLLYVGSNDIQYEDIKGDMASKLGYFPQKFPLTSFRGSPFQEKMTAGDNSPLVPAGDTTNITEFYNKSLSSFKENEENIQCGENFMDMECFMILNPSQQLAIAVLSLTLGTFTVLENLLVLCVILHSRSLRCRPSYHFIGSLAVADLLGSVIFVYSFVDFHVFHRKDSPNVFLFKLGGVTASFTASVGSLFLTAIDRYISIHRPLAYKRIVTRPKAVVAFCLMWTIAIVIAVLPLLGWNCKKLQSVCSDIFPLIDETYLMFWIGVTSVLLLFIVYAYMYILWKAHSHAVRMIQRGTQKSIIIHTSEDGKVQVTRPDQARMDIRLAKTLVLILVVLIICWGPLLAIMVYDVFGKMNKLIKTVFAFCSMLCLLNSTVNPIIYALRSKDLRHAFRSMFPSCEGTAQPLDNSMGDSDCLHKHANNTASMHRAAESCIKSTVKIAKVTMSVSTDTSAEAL
Experiment: Radioligand competition binding, [3H]-CP-55,940, rat brain membranes
Conditions: rCB1

[
  {
    "molecule": "Cc1cc(C(=O)N(C)C(c2ccccc2)c2ccco2)nn1-c1cccc(C(F)(F)F)c1 (centres unmarked)",
    "pKi [95% CI]": "6.1 [5.8 – 6.3]"
  },
  {
    "molecule": "CCCCCCC(C)(C)c1cc(O)c2c(c1)OC(C)(C)C1CCC(=O)CC21 (centres unmarked) [Nabilone, reference compound]",
    "pKi [95% CI]": "8.6 [8.4 – 8.9]"
  },
  {
    "molecule": "Cn1nc(-c2nnc(C(C)(C)Oc3ccc(Cl)cc3)o2)c2ccccc2c1=O",
    "pKi [95% CI]": "6.16 [5.99 – 6.34]"
  },
  {
    "molecule": "COC(=O)C(NC(=O)c1cc(C)n(-c2cccc(F)c2)n1)c1cccs1 (centres unmarked)",
    "pKi [95% CI]": "6.14 [6.01 –6.26]"
  },
  {
    "molecule": "COC(=O)[C@H](c1cccs1)N(C)C(=O)c1cc(C)n(-c2cccc(C(F)(F)F)c2)n1",
    "pKi [95% CI]": "5.8 [5.4 – 6.1]"
  },
  {
    "molecule": "CC(=O)C(c1cccs1)N(C)C(=O)c1cc(C)n(-c2cccc(C(F)(F)F)c2)n1 (centres unmarked)",
    "pKi [95% CI]": "6.0 [5.8 – 6.2]"
  },
  {
    "molecule": "COC(=O)[C@@H](c1cccs1)N(C)C(=O)c1cc(C)n(-c2cccc(C(F)(F)F)c2)n1",
    "pKi [95% CI]": "5.8 [5.7 – 6.0]"
  }
]

Returns the measured pKi [95% CI] for the input molecule. Input: Cc1cc(C(=O)NC(c2ccccc2)c2ccco2)nn1-c1cccc(C#N)c1 (centres unmarked)
6.5 [6.3 – 6.7]

* * *

Target: hCB1 (Homo sapiens, UniProt P21554)
Assay: bioSensAll ebBRET signaling profiling, hCB1
Assay type: cell-based
Set-up: host or cells: HEK293SL cells, transient PEI transfection
Settings: Log [Compound] (M) -10.0969; single replicate values, FigS6a
measurement-label: Gi1 hCB1
// return a plain number; no unit text

[
  {
    "compound": "COC(=O)[C@@H]1[C@@H]2CCC[C@@H]2CN1C(=O)c1cc(C)n(-c2cccc(Cl)c2)n1 (racemic) [‘10010]",
    "measurement-label": "Gi1 hCB1",
    "numeric-value": 1.662
  },
  {
    "compound": "Cn1nc(-c2nnc(C(C)(C)Oc3ccc(C(F)(F)F)cc3)o2)c2ccccc2c1=O [‘2153]",
    "measurement-label": "Gi1 hCB1",
    "numeric-value": -5.445
  },
  {
    "compound": "COc1cccc(C(NC(=O)c2cc(C)n(-c3cccc(C(F)(F)F)c3)n2)c2ccco2)c1 (centres unmarked) [‘1087]",
    "measurement-label": "Gi1 hCB1",
    "numeric-value": 1.353
  },
  {
    "compound": "CC(=O)C(c1cccs1)N(C)C(=O)c1cc(C)n(-c2cccc(C(F)(F)F)c2)n1 (centres unmarked) [‘6829]",
    "measurement-label": "Gi1 hCB1",
    "numeric-value": 1.353
  }
]

Entry Cc1nn(Cc2ccc(Cl)cc2)c(C)c1C(=O)OCC1CSc2ccccc2O1 (centres unmarked) [‘5463] , system hCB1 (Homo sapiens, UniProt P21554): what Gi1 hCB1 was measured?
-1.0102

Record Cc1cc(C(=O)N2CC3(CCC3)[C@@H]2[C@H]2CCCO2)nn1-c1cccc(C(F)(F)F)c1 (single isomer, unassigned) [compound 430] : what is its Gi1 hCB1 with hCB1 (Homo sapiens, UniProt P21554)?
1.338

Please provide the recorded Gi1 hCB1 for COC(=O)[C@@H]1[C@@H]2CC[C@@H]2CN1C(=O)c1cc(C)n(-c2cccc(C(F)(F)F)c2)n1 [‘6448] , tested on hCB1 (Homo sapiens, UniProt P21554).
0.8753

Please tell me: Gi1 hCB1 of Cc1cc(C(=O)N2CC3(CCC3)[C@@H]2[C@@H]2CCCO2)nn1-c1cccc(C(F)(F)F)c1 [‘3386] , system hCB1 (Homo sapiens, UniProt P21554)?
0.3511

Tell me reported Gi1 hCB1 for Cc1cc(C(=O)N2CC3(CCC3)[C@H]2[C@H]2CCCO2)nn1-c1cccc(C(F)(F)F)c1 [‘1651] , tested with hCB1 (Homo sapiens, UniProt P21554).
1.754

Any idea what Gi1 hCB1 came out for COC(=O)[C@@H]1[C@@H]2CCC[C@@H]2CN1C(=O)c1cc(C)n(-c2cccc(C(F)(F)F)c2)n1 [‘6439] on hCB1 (Homo sapiens, UniProt P21554)?
-1.6068

Checklist item: Gi1 hCB1 tested on hCB1 (Homo sapiens, UniProt P21554), entry Cc1cc(C(=O)NC(c2ccccc2)c2ccco2)nn1-c1cccc(C#N)c1 (centres unmarked) [‘12565] , value?
0.8444

Please state recorded Gi1 hCB1 (tested on hCB1 (Homo sapiens, UniProt P21554)) of Cc1cc(C(=O)NC(c2ccccc2)c2ccco2)nn1-c1cccc(C(F)(F)F)c1 (centres unmarked) [‘1081]
1.199

Query for hCB1 (Homo sapiens, UniProt P21554): what Gi1 hCB1 does the record show for Cc1nc(CC2CC2)oc1-c1nc(Cc2cc3c(cc2Br)OCO3)no1 [‘7019] ?
-0.8202

# value lookup — system hCB1 (Homo sapiens, UniProt P21554), readout Gi1 hCB1, item Cc1c(C(=O)OCC2CSc3ccccc3O2)cnn1Cc1ccccc1 (centres unmarked) [‘7800]
-0.4084

Value wanted: Gi1 hCB1 (hCB1 (Homo sapiens, UniProt P21554)) of entry COC(=O)C(NC(=O)c1cc(C)n(-c2cccc(C(F)(F)F)c2)n1)c1cccs1 (centres unmarked) [‘60154]
-0.8206

Give the reported Gi1 hCB1 for Cc1cc(C(=O)N(C)C(c2ccco2)c2ccco2)nn1-c1cccc(C(F)(F)F)c1 [‘4388] (system: hCB1 (Homo sapiens, UniProt P21554)).
1.816

Please tell me: Gi1 hCB1 of Cn1nc(-c2nnc(C(C)(C)Oc3ccc(Cl)cc3)o2)c2ccccc2c1=O [‘0450] , system hCB1 (Homo sapiens, UniProt P21554)?
-6.442

Hello, the source for this data is paper PMC11882969, in case you need it.
